// provenance: paper PMC7782162

- MEASURED_ON: TvaCA1 (Trichomonas vaginalis)
- Construct: gene TVAG_005270; recombinant from E. coli BL21 Star (DE3), Ni2+-NTA purified; beta-CA homodimer with two active sites
- Sequence (A2ENQ8 1-182): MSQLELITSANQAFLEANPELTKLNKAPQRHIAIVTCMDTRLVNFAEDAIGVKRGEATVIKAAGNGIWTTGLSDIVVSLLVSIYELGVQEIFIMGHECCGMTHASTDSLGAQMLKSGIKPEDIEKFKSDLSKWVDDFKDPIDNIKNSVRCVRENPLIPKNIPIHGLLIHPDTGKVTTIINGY
- METHOD: biochemical
- Set-up: stopped-flow CO2 hydration assay, phenol red at 557 nm, TRIS pH 8.3, 15 min preincubation, KI
- TEST_CONDITIONS: inhibitor; read-out: KI^a (nM) / TvaCA1^c / β
METRIC_NAME: Ki

Look at this molecule and give its reported Ki. Nc1ccc(S(=O)(=O)NCc2ccc(S(N)(=O)=O)cc2)cc1 [compound 23]
> 50000 nM
